target: CYP3A4 (Homo sapiens); test: clinical; settings: in vivo
Sequence (P08684 whole entry): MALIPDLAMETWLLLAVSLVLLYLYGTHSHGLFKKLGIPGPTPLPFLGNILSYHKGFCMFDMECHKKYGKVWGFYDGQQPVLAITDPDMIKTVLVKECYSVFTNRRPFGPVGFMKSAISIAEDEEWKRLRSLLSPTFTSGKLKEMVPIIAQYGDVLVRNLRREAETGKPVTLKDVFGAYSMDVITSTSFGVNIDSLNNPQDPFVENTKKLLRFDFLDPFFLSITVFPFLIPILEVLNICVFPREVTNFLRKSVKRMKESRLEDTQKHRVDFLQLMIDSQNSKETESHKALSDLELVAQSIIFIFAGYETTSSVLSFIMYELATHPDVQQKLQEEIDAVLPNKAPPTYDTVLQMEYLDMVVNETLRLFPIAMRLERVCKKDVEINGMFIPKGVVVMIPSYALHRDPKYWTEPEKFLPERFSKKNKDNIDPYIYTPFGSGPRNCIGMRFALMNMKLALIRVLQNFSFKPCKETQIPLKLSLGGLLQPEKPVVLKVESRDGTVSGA
measured.attribute: AUC(0-inf) (ng·h/mL)
Numbers only, in ng·h/mL.

AUC(0-inf) lookup needed for Cc1ncc2n1-c1ccc(Cl)cc1C(c1ccccc1F)=NC2 [MDZ, midazolam] , thanks.
27.9

----------
target: CYP3A4 (Homo sapiens); assay: clinical; settings: in vivo
measured.attribute: Cmax (ng/mL)
Answers are plain numbers, in ng/mL.

Return Cmax measured with CYP3A4 (Homo sapiens) given this molecule: Cc1ncc2n1-c1ccc(Cl)cc1C(c1ccccc1F)=NC2
6.24

----------
biological target: CYP3A4 (Homo sapiens); experiment: clinical; settings: in vivo, po, 2 mg
measured.attribute: Cmax (ng/mL)
One number for each entry, in ng/mL.

Requested read-out: Cmax. Entry: Cc1ncc2n1-c1ccc(Cl)cc1C(c1ccccc1F)=NC2
5.95
